biological target: Delta-type opioid receptor (Rattus norvegicus); experiment: Inhibition of [3H]naltrindole binding to rat whole brain Opioid receptor delta at 1-10 uM
Where a SMILES comes first, the peptide text is derived from it. [ ]: non-standard residue; d: D form.
Reported inhibition values for the following compounds.
Assay Readout: inhibition (%)

- Compound: "NC(=O)[C@@H]1CSC([C@H](Cc2c[nH]c3ccccc23)NC(=O)[C@@H]2CCCN2C(=O)[C@@H](N)Cc2ccc(O)cc2)N1 (stereo not given in full)"
  Uom: "%"
  Numeric Readout: 67.8
- Compound: "NC(=O)[C@@H]1CSC([C@@H](Cc2ccccc2)NC(=O)[C@@H]2CCCN2C(=O)[C@@H](N)Cc2ccc(O)cc2)N1 (stereo not given in full)"
  Uom: "%"
  Numeric Readout: 42.2
- Compound: "NC(=O)[C@@H]1CSC([C@H](Cc2ccccc2)NC(=O)[C@@H]2CCCN2C(=O)[C@@H](N)Cc2ccc(O)cc2)N1 (stereo not given in full)"
  Uom: "%"
  Numeric Readout: 22.7
- Compound: "NC(=O)[C@H]1CCCN1C(=O)[C@H](Cc1ccccc1)NC(=O)[C@@H]1CCCN1C(=O)[C@@H](N)Cc1ccc(O)cc1 (H-YPF[dP]-NH2)"
  Uom: "%"
  Numeric Readout: 23.6
- Compound: "NC(=O)[C@@H]1CCCN1C(=O)[C@H](Cc1ccccc1)NC(=O)[C@@H]1CSC([C@@H](N)Cc2ccc(O)cc2)N1 (stereo not given in full)"
  Uom: "%"
  Numeric Readout: 10.2

====

target: Mu-type opioid receptor (Rattus norvegicus); assay: Inhibition of [3H]DAMGO binding to rat whole brain Opioid receptor mu
Sequence (P33535 whole entry): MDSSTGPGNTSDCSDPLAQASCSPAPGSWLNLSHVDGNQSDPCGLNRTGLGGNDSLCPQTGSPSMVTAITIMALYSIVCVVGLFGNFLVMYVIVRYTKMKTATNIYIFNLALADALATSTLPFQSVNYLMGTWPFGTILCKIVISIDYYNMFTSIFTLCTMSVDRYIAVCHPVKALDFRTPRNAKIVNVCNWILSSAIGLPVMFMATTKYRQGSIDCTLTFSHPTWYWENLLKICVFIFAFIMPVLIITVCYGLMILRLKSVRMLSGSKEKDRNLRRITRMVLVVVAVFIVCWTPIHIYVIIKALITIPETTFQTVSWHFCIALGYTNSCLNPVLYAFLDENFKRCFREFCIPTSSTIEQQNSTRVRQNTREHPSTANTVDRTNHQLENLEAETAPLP
Where a SMILES comes first, the peptide text is derived from it.
Assay Readout: Ki (µM)

- Compound: "NC(=O)[C@@H]1CCCN1C(=O)[C@H](Cc1ccccc1)NC(=O)[C@@H]1CCCN1C(=O)[C@@H](N)Cc1ccc(O)cc1 (H-YPFP-NH2)"
  Assay Readout: "Ki"
  Uom: "µM"
  Numeric Readout: 0.0256
- Compound: "NC(=O)[C@@H]1CSC([C@H](Cc2ccccc2)NC(=O)[C@@H]2CCCN2C(=O)[C@@H](N)Cc2ccc(O)cc2)N1 (some centres undefined)"
  Assay Readout: "Ki"
  Uom: "µM"
  Numeric Readout: 0.0141
- Compound: "NC(=O)[C@@H]1CSC([C@H](Cc2c[nH]c3ccccc23)NC(=O)[C@@H]2CCCN2C(=O)[C@@H](N)Cc2ccc(O)cc2)N1 (some centres undefined)"
  Assay Readout: "Ki"
  Uom: "µM"
  Numeric Readout: 0.178
- Compound: "NC(=O)[C@@H]1CSC([C@@H](Cc2ccccc2)NC(=O)[C@@H]2CCCN2C(=O)[C@@H](N)Cc2ccc(O)cc2)N1 (some centres undefined)"
  Assay Readout: "Ki"
  Uom: "µM"
  Numeric Readout: 0.29

====

Reported pEC50 values for the following compounds.
organism: Cavia porcellus; test: Inhibition of isolated guinea pig ileum contraction induced by electrical stimulation; type: functional
pEC50: −log10 of the molar value. Where a SMILES comes first, the peptide text is derived from it.
Assay Readout: pEC50

- Compound: "NC(=O)[C@@H]1CSC([C@H](Cc2c[nH]c3ccccc23)NC(=O)[C@@H]2CCCN2C(=O)[C@@H](N)Cc2ccc(O)cc2)N1 (stereo partly specified)"
  Numeric Readout: 7.55
- Compound: "NC(=O)[C@@H]1CSC([C@@H](Cc2ccccc2)NC(=O)[C@@H]2CCCN2C(=O)[C@@H](N)Cc2ccc(O)cc2)N1 (stereo partly specified)"
  Numeric Readout: 7.44
- Compound: "NC(=O)[C@@H]1CSC([C@H](Cc2ccccc2)NC(=O)[C@@H]2CCCN2C(=O)[C@@H](N)Cc2ccc(O)cc2)N1 (stereo partly specified)"
  Numeric Readout: 8.01
- Compound: "CN(C)C(=O)C(CCN1CCC(O)(c2ccc(Cl)cc2)CC1)(c1ccccc1)c1ccccc1 [LOPERAMIDE]"
  Numeric Readout: 6.31
- Compound: "NC(=O)[C@@H]1CCCN1C(=O)[C@H](Cc1ccccc1)NC(=O)[C@@H]1CCCN1C(=O)[C@@H](N)Cc1ccc(O)cc1 (H-YPFP-NH2)"
  Numeric Readout: 7.89
- Compound: "C[C@@H](NC(=O)[C@@H](N)Cc1ccc(O)cc1)C(=O)NCC(=O)N(C)[C@@H](Cc1ccccc1)C(=O)NCCO [DAMGO]"
  Numeric Readout: 7.44

Measured values drawn from ChEMBL document CHEMBL1143626 for this set.
